- System under test: Monoglyceride lipase (Rattus norvegicus, UniProt Q8R431)
- Sequence (Q8R431 whole entry): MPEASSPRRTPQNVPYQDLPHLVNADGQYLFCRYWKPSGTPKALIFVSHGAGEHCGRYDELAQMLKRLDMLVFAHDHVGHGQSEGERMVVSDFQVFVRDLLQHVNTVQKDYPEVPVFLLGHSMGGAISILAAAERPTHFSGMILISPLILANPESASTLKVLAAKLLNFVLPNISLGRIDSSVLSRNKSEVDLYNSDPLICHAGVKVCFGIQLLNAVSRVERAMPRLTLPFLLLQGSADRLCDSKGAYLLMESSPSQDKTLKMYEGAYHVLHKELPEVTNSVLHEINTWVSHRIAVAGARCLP
Property measured: pIC50
Numbers only, as −log10 of the molar value.

Known pIC50 results, listed for orientation:
C=c1c(O)c(O)cc2c1=CC=C1[C@@]2(C)CC[C@@]2(C)C3C[C@](C)(C(=O)OC)CC[C@]3(C)CC[C@]12C (stereo not given in full) : 7.03
Cc1c(O)c(O)cc2c1CC=C1[C@@]2(C)CC[C@@]2(C)C3C[C@](C)(C(=O)O)CC[C@]3(C)CC[C@]12C (stereo not given in full) [Dihydrocelastrol] : 4.82
COC(=O)[C@]1(C)CC[C@]2(C)CC[C@]3(C)C4=CCc5c(cc(O)c(O)c5C)[C@]4(C)CC[C@@]3(C)C2C1 (stereo not given in full) : 5.40
C=c1c(O)c(O)cc2c1=CC=C1[C@@]2(C)CC[C@@]2(C)[C@@H]3C[C@](C)(C(=O)O)CC[C@]3(C)CC[C@]12C : 5.80

Next:
Note to self: pIC50 recorded for CC(=O)Oc1cc2c(c(C)c1OC(C)=O)CC=C1[C@@]2(C)CC[C@@]2(C)[C@@H]3C[C@](C)(C(=O)O)CC[C@]3(C)CC[C@]12C [Dihydrocelastryl diacetate] was 4.82
